- protocol-notes: In vitro plasma stability, monkey plasma
- assay-conditions: Table 2; prodrug 10 μM, 60 min incubation at 37° C.; values read as % prodrug remaining
measured-metric: PLASMA STABILITY Monkey (%)

| compound | PLASMA STABILITY Monkey / % |
| --- | --- |
| CC(C)OC(=O)[C@H](CCC(=O)C=[N+]=[N-])NC(=O)OCOC(=O)C(C)(C)C [Compound 42] | 0 |

a: CC(C)C[C@H](N)C(=O)N[C@@H](CCC(=O)C=[N+]=[N-])C(=O)OC(C)C [Compound 9]
b: CC(C)OC(=O)[C@H](CCC(=O)C=[N+]=[N-])NC(=O)O[C@H](C)OC(=O)C(C)(C)C (single isomer, unassigned) [Compound 14b]
Input: Kindly identify which of a and b has the larger recorded PLASMA STABILITY Monkey value. Selection: enter the item's label.
Output: b

P: CC(C)OC(=O)[C@H](CCC(=O)C=[N+]=[N-])NC(=O)[C@@H](N)Cc1cc2ccccc2[nH]1 [Compound 38]
Q: CCOC(=O)[C@H](CCC(=O)C=[N+]=[N-])NC(=O)OC(C)OC(=O)C(C)(C)C (some centres unmarked) [Compound 32]
Input: Smaller PLASMA STABILITY Monkey value, P vs Q ? Selection: enter the item's label.
Output: P

---

- protocol-notes: In vitro plasma stability, human plasma
- assay-conditions: Table 2; prodrug 10 μM, 60 min incubation at 37° C.; values read as % prodrug remaining
measured-metric: PLASMA STABILITY Human (%)

Previously resolved entries follow.
| molecule | unit-spec | numeric-value |
| --- | --- | --- |
| CC(C)C[C@H](N)C(=O)N[C@@H](CCC(=O)C=[N+]=[N-])C(=O)OC(C)C | % | 1 |
| CC(C)OC(=O)[C@H](CCC(=O)C=[N+]=[N-])NC(=O)[C@@H](N)Cc1cc2ccccc2[nH]1 | % | 30 |
| CCOC(=O)[C@H](CCC(=O)C=[N+]=[N-])NC(=O)OC(C)OC(=O)C(C)(C)C (some centres unmarked) | % | 88 |
| CC(C)OC(=O)[C@H](CCC(=O)C=[N+]=[N-])NC(=O)O[C@H](C)OC(=O)C(C)(C)C (single isomer, unassigned) [Compound 14b] | % | 91 |
| CC(C)OC(=O)[C@H](CCC(=O)C=[N+]=[N-])NC(=O)OCOC(=O)C(C)(C)C | % | 9 |
| Cc1oc(=O)oc1COC(=O)N[C@@H](CCC(=O)C=[N+]=[N-])C(=O)OC(C)C | % | 0 |

A: CCOC(=O)[C@H](CCC(=O)C=[N+]=[N-])NC(=O)OCc1oc(=O)oc1C
B: CCOC(=O)[C@H](CCC(=O)C=[N+]=[N-])NC(=O)[C@@H](N)Cc1cc2ccccc2[nH]1
Input: Kindly identify which of A and B has the larger recorded PLASMA STABILITY Human value. Selection: enter the item's label.
Output: B

---

- protocol-notes: Chemical stability of DON esters and prodrugs
- Format: physicochemical

| compound | chemical stability |
| --- | --- |
| CC(C)OC(=O)C(N)CCC(=O)C=[N+]=[N-] (stereo not shown) | unstable |
| CCOC(=O)C(N)CCC(=O)C=[N+]=[N-] (stereo not shown) | unstable |
